test: Total clearance of compound was determined in rabbit at 5 mg/kg intravenously admn.; assay type: ADME, organism-based, Oryctolagus cuniculus; set-up: dose 5 mg/kg, route intravenous; details: in vivo, iv, read-out: CLT
RECORDED ENDPOINT: clearance

{"GIVEN SMILES": "O=C(NO)C1(S(=O)(=O)c2ccc(Oc3ccc(Cl)cc3)cc2)CCN(Cc2ccccc2)CC1", "EXPERIMENTAL RESULT": "0.1 mL/min/kg"}

* * *

assay: Maximum plasma concentration of compound was determined in monkey at 25 mg/kg orally; assay type: ADME, organism-based; parameters: dose 25 mg/kg, route oral; conditions: simiiformes, po

{"GIVEN SMILES": "O=C(NO)C1(S(=O)(=O)c2ccc(Oc3ccc(Cl)cc3)cc2)CCN(Cc2ccccc2)CC1", "Cmax [µg/mL]": 50.3}

* * *

target: Neutrophil collagenase (Homo sapiens, UniProt P22894); test: Inhibition of Matrix metalloprotease-8
Sequence (P22894 whole entry): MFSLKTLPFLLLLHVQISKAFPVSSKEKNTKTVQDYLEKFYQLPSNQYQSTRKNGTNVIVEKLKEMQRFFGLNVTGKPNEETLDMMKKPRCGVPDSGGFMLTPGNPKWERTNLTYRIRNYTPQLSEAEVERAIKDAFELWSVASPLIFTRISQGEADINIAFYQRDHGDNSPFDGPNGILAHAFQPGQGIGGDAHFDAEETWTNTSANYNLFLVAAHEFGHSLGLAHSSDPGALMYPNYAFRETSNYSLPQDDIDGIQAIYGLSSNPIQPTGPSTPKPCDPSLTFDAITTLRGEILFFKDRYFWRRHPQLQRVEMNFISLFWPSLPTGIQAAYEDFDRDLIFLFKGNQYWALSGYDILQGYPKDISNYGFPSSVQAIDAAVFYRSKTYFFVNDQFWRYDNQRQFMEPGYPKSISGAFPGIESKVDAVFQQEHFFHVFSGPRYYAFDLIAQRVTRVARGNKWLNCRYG

{"GIVEN SMILES": "O=C(NO)C1(S(=O)(=O)c2ccc(Oc3ccc(Cl)cc3)cc2)CCN(Cc2ccccc2)CC1", "IC50 / nM": 1}

* * *

target: Stromelysin-1 (Homo sapiens, UniProt P08254)
Sequence (P08254 whole entry): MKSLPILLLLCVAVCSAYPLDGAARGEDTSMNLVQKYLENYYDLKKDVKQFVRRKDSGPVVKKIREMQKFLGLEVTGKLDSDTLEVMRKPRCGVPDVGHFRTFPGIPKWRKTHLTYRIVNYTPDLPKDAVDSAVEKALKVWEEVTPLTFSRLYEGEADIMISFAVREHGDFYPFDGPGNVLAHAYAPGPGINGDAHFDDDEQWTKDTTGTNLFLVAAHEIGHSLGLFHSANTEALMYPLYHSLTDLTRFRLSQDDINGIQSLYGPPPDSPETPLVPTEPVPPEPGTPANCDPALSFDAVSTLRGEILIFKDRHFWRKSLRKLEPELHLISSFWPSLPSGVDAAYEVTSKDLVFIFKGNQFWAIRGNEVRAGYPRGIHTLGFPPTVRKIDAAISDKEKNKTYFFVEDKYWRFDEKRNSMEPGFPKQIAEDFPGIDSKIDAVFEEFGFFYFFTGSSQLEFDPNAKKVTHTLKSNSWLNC
pIC50: −log10 of the molar value.

{"GIVEN SMILES": "O=C(NO)C1(S(=O)(=O)c2ccc(Oc3ccc(Cl)cc3)cc2)CCN(Cc2ccccc2)CC1", "pIC50": 7.26}

* * *

Entries with their measured pIC50, system Matrix metalloproteinase-9 (Homo sapiens):
pIC50: −log10 of the molar value.
RECORDED ENDPOINT: pIC50

{"GIVEN SMILES": "COc1ccc(S(=O)(=O)C2(C(=O)NO)CCN(Cc3ccc(Br)cc3)CC2)cc1", "RECORDED ENDPOINT": "pIC50", "EXPERIMENTAL RESULT": 8.00}
{"GIVEN SMILES": "CCN1CCC(C(=O)NO)(S(=O)(=O)c2ccc(Oc3ccc(Cl)cc3)cc2)CC1", "RECORDED ENDPOINT": "pIC50", "EXPERIMENTAL RESULT": 9.00}
{"GIVEN SMILES": "O=C(NO)C1(S(=O)(=O)c2ccc(-c3ccco3)cc2)CCN(Cc2ccccc2)CC1", "RECORDED ENDPOINT": "pIC50", "EXPERIMENTAL RESULT": 8.52}
{"GIVEN SMILES": "COc1ccc(S(=O)(=O)C2(C(=O)NO)CCN(Cc3ccc(-c4ccccn4)cc3)CC2)cc1", "RECORDED ENDPOINT": "pIC50", "EXPERIMENTAL RESULT": 8.22}
{"GIVEN SMILES": "COc1ccc(S(=O)(=O)C2(C(=O)NO)CCN(Cc3ccc(C)cc3)CC2)cc1", "RECORDED ENDPOINT": "pIC50", "EXPERIMENTAL RESULT": 7.77}

* * *

test: Maximum plasma concentration of compound was determined in rabbit at 25 mg/kg orally; type: ADME, organism-based, Oryctolagus cuniculus; parameters: dose 25 mg/kg, route oral; details: po

{"GIVEN SMILES": "O=C(NO)C1(S(=O)(=O)c2ccc(Oc3ccc(Cl)cc3)cc2)CCN(Cc2ccccc2)CC1", "READOUT UNITS": "ng/mL", "Cmax": 22700}

* * *

experiment: Area under concentration-time curve of compound was determined in dog at 5 mg/kg intravenously admn.; assay type: ADME, organism-based, Canis lupus familiaris; parameters: dose 5 mg/kg, route intravenous; conditions: in vivo, iv, read-out: AUC 0

{"GIVEN SMILES": "O=C(NO)C1(S(=O)(=O)c2ccc(Oc3ccc(Cl)cc3)cc2)CCN(Cc2ccccc2)CC1", "AUC [µg·h/mL]": 786}

* * *

experiment: Area under concentration-time curve of compound was determined in rat at 25 mg/kg orally; assay type: ADME, organism-based; design: dose 25 mg/kg, route oral; details: in vivo, po
RECORDED ENDPOINT: AUC (µg·h/mL)

{"GIVEN SMILES": "O=C(NO)C1(S(=O)(=O)c2ccc(Oc3ccc(Cl)cc3)cc2)CCN(Cc2ccccc2)CC1", "EXPERIMENTAL RESULT": 899}

* * *

experiment: Maximum plasma concentration of compound was determined in dog at 25 mg/kg orally; type: ADME, organism-based, Canis lupus familiaris; parameters: dose 25 mg/kg, route oral; details: po
RECORDED ENDPOINT: Cmax (µg/mL)

{"GIVEN SMILES": "O=C(NO)C1(S(=O)(=O)c2ccc(Oc3ccc(Cl)cc3)cc2)CCN(Cc2ccccc2)CC1", "RECORDED ENDPOINT": "Cmax", "EXPERIMENTAL RESULT": 96.3}

* * *

assay: Time of peak concentration of compound was determined in dog at 25 mg/kg orally; format: ADME, organism-based, Canis lupus familiaris; design: dose 25 mg/kg, route oral; details: in vivo, po
RECORDED ENDPOINT: Tmax

{"GIVEN SMILES": "O=C(NO)C1(S(=O)(=O)c2ccc(Oc3ccc(Cl)cc3)cc2)CCN(Cc2ccccc2)CC1", "EXPERIMENTAL RESULT": "3.5 h"}
